Just for reference, the NIST ThermoML archive (doi:10.1021/je200788z) is where these values come from.

Measurement conditions: 288.15 K; 101.33 kPa; Liquid; Vibrating tube method
Known mass density of a selection of molecules
I only need the number, in kg/m3, no unit after it.

Task: Request the reported mass density associated with CC(C)OC(=O)[C@@H]1CCC[NH2+]1.CCCCCCCCCCCCOS(=O)(=O)[O-] [(S)-2-(isopropoxycarbonyl)pyrrolidin-1-ium dodecyl sulfate]
Result: 1054.33

Task: Form field: reported mass density of CC(C)OC(=O)CC[C@H]([NH3+])C(=O)OC(C)C.CCCCCCCCCCCCOS(=O)(=O)[O-]
Result: 1057.9

Task: Data request, read-out mass density, for CC(C)COC(=O)[C@H](C)[NH3+].CCCCCCCCCCCCOS(=O)(=O)[O-] [(S)-1-isobutoxy-1-oxopropan-2-aminium dodecyl sulfate]
Result: 1049.18

Task: Which measured mass density value corresponds to CC(C)OC(=O)[C@@H]([NH3+])C(C)C.CCCCCCCCCCCCOS(=O)(=O)[O-] ?
Result: 1033.35

Task: If you can, please state the reported mass density value of CC(C)COC(=O)[C@@H]1CCC[NH2+]1.CCCCCCCCCCCCOS(=O)(=O)[O-] [(S)-2-(isobutoxycarbonyl)pyrrolidinium dodecyl sulfate] .
Result: 1043.22
